# Organism: Rattus norvegicus
# procedure.summary: DrugMatrix - Regimen: Daily Repeat
# Assay type: toxicity, organism-based, Sprague-Dawley
# Parameters: regimen Daily Repeat, gender Male, age 6-8 weeks
# applied.conditions: in vivo, po, 0 mg/kg, 72 h, tissue Plasma, route oral GAVAGE, dose level Control, time 3 day, vehicle .5 % CMC
metric.name: ALBUMIN (G/DL)
Please respond with the number in G/DL and leave the unit unwritten.

For orientation, consider the following solved cases.
COc1ccccc1[N+](=O)[O-]
4.35
COc1cc(OC)c(C(=O)CCCN2CCCC2)c(OC)c1
4.17

Lookup result for C[C@H]1[C@H](NC(=O)/C(=N\OC(C)(C)C(=O)O)c2csc(N)n2)C(=O)N1S(=O)(=O)O ; measured ALBUMIN: 4.27

Lookup result for C[C@@H]1O[C@@H](O[C@H]2C[C@@H](O)[C@]3(CO)[C@H]4[C@H](O)C[C@]5(C)[C@@H](C6=CC(=O)OC6)CC[C@]5(O)[C@@H]4CC[C@]3(O)C2)[C@H](O)[C@H](O)[C@H]1O ; measured ALBUMIN: 4.22

Lookup result for COc1ccc2c(c1OC)C(=O)O[C@@H]2[C@H]1c2c(cc3c(c2OC)OCO3)CCN1C ; measured ALBUMIN: 3.8
